biological target: Full-length (FL)-PRMT5-MEP50 enzyme complex (Homo sapiens (Human), UniProt O14744); assay: PRMT5-MEP50 Enzyme Methylation Assay; format: biochemical; settings: second IC50 of 7 parameters biphasic fit; biotinylated H4R3(Me1) peptide, 15 μM SAM; top compound concentration 100000 nM; read-out: Enzyme Methylation Assay IC50_2
Sequence (O14744 whole entry): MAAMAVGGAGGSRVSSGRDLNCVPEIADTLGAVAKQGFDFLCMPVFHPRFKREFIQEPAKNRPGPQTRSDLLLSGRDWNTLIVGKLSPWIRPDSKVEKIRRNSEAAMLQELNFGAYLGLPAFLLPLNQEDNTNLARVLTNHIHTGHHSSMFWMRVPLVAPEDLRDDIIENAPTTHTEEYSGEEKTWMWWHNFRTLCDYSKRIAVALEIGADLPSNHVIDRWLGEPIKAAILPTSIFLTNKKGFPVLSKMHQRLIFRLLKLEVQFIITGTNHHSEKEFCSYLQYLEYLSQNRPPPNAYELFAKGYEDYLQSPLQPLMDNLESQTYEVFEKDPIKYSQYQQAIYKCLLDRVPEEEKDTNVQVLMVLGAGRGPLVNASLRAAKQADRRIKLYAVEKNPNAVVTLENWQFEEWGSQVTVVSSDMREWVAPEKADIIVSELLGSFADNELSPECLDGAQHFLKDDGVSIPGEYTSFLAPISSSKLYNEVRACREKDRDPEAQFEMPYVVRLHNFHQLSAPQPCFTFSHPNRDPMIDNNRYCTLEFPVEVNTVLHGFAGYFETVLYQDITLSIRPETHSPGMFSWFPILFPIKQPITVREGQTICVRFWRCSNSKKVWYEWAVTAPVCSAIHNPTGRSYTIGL
Sequence (Q9BQA1 whole entry partner): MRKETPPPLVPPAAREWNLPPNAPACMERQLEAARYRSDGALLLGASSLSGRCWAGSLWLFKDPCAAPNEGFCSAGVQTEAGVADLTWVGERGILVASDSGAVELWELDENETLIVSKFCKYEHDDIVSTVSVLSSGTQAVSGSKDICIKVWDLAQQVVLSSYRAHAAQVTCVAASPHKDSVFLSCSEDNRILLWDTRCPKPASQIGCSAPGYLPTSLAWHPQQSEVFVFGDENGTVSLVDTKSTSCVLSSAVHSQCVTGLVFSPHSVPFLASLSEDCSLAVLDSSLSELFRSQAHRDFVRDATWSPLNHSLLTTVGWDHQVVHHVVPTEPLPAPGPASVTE
Assign IC50 to each entry below.

## Task Endpoint output: IC50 of CC[C@H]1CN(C[C@@H](O)[C@@H]2Cc3ccccc3CN2)C(=O)c2cc(Cl)ncc21 (single isomer, unassigned) [Example 2] . Value?
## Result ≥ 100 µM

## Task Endpoint output: IC50 of CC[C@H]1CN(C[C@@H](O)[C@@H]2Cc3ccccc3CN2)C(=O)c2cc(Cl)ncc21 (single isomer, unassigned) [Example 3] . Value?
## Result ≥ 100 µM

## Task Endpoint output: IC50 of CC[C@H]1CN(C[C@@H](O)[C@@H]2Cc3ccccc3CN2)C(=O)c2cc(NC3CCN(C(C)=O)CC3)ncc21 (single isomer, unassigned) [Example 8] . Value?
## Result 29.1 µM

## Task Endpoint output: IC50 of CC[C@H]1CN(C[C@@H](O)[C@@H]2Cc3ccccc3CN2)C(=O)c2cc(NC3CCN(C(C)=O)CC3)ncc21 (single isomer, unassigned) [Example 9] . Value?
## Result 1.18 µM

## Task Endpoint output: IC50 of CC[C@H]1CN(C[C@@H](O)[C@@H]2Cc3ccccc3CN2)C(=O)c2cc(Cl)ncc21 (single isomer, unassigned) [Example 4] . Value?
## Result ≥ 100 µM

## Task Endpoint output: IC50 of CC[C@H]1CN(C[C@@H](O)[C@@H]2Cc3ccccc3CN2)C(=O)c2cc(NC3CCN(C(C)=O)CC3)ncc21 (single isomer, unassigned) [Example 7] . Value?
## Result 4.99 µM

## Task Endpoint output: IC50 of CC[C@H]1CN(C[C@@H](O)[C@@H]2Cc3ccccc3CN2)C(=O)c2cc(Cl)ncc21 (single isomer, unassigned) [Example 1] . Value?
## Result ≥ 100 µM

## Task Endpoint output: IC50 of CC(=O)N1CCC(Nc2cc3c(cn2)C(C)(C)CN(C[C@@H](O)[C@@H]2Cc4ccccc4CN2)C3=O)CC1 (single isomer, unassigned) [Example 12] . Value?
## Result 0.631 µM

## Task Endpoint output: IC50 of CC(=O)N1CCC(Nc2cc3c(cn2)C(C)(C)CN(C[C@@H](O)[C@@H]2Cc4ccccc4CN2)C3=O)CC1 (single isomer, unassigned) [Example 11] . Value?
## Result 9.23 µM

## Task Endpoint output: IC50 of CC[C@H]1CN(C[C@@H](O)[C@@H]2Cc3ccccc3CN2)C(=O)c2cc(NC3CCN(C(C)=O)CC3)ncc21 (single isomer, unassigned) [Example 10] . Value?
## Result 64.5 µM

----------
target: PRMT5 (Homo sapiens (Human), UniProt O14744); assay: PRMT5 Cell Target Engagement (TE) Assay; settings: MCF-7 cells, 3 days treatment, nuclear SDMA by high content imaging; top compound concentration 10000 nM
Sequence (O14744 whole entry): as the sequence (O14744 whole entry) above
Sequence (Q9BQA1 whole entry partner): as the sequence (Q9BQA1 whole entry partner) above
Assign EC50 to each entry below.

## Task // fetch PRMT5 (Homo sapiens (Human), UniProt O14744) EC50 for CC[C@H]1CN(C[C@@H](O)[C@@H]2Cc3ccccc3CN2)C(=O)c2cc(NC3CCN(C(C)=O)CC3)ncc21 (single isomer, unassigned) [Example 10]
## Result ≥ 10 µM

## Task // fetch PRMT5 (Homo sapiens (Human), UniProt O14744) EC50 for CC[C@H]1CN(C[C@@H](O)[C@@H]2Cc3ccccc3CN2)C(=O)c2cc(Cl)ncc21 (single isomer, unassigned) [Example 4]
## Result ≥ 10 µM

## Task // fetch PRMT5 (Homo sapiens (Human), UniProt O14744) EC50 for CC[C@H]1CN(C[C@@H](O)[C@@H]2Cc3ccccc3CN2)C(=O)c2cc(Cl)ncc21 (single isomer, unassigned) [Example 3]
## Result ≥ 10 µM

## Task // fetch PRMT5 (Homo sapiens (Human), UniProt O14744) EC50 for CC[C@H]1CN(C[C@@H](O)[C@@H]2Cc3ccccc3CN2)C(=O)c2cc(NC3CCN(C(C)=O)CC3)ncc21 (single isomer, unassigned) [Example 7]
## Result 0.682 µM

----------
target: Full-length (FL)-PRMT5-MEP50 enzyme complex (Homo sapiens (Human)); experiment: PRMT5-MEP50 Enzyme Methylation Assay; format: biochemical; conditions: first IC50 of 7 parameters biphasic fit; biotinylated H4R3(Me1) peptide, 15 μM SAM; top compound concentration 100000 nM; read-out: Enzyme Methylation Assay IC50_1
Assign IC50 to each entry below.
Expressed in µM, but write only the number.

## Task Endpoint output: IC50 of CC(=O)N1CCC(Nc2cc3c(cn2)C(C)(C)CN(C[C@@H](O)[C@@H]2Cc4ccccc4CN2)C3=O)CC1 (single isomer, unassigned) [Example 11] . Value?
## Result 0.0569

## Task Endpoint output: IC50 of CC[C@H]1CN(C[C@@H](O)[C@@H]2Cc3ccccc3CN2)C(=O)c2cc(Cl)ncc21 (single isomer, unassigned) [Example 4] . Value?
## Result 42.9

## Task Endpoint output: IC50 of CC[C@H]1CN(C[C@@H](O)[C@@H]2Cc3ccccc3CN2)C(=O)c2cc(NC3CCN(C(C)=O)CC3)ncc21 (single isomer, unassigned) [Example 8] . Value?
## Result 0.0968

## Task Endpoint output: IC50 of CC(=O)N1CCC(Nc2cc3c(cn2)C(C)(C)CN(C[C@@H](O)[C@@H]2Cc4ccccc4CN2)C3=O)CC1 (single isomer, unassigned) [Example 12] . Value?
## Result 0.00153
